Tested on: K4 kissing-loop RNA reporter;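 further: bound reporter read as fluorescence of individual clusters on recovered sequencing chips by microscopy, with normalized cluster intensities fitted with a binding model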
Experiment: apparent KD of K4 kissing-loop reporter; higher = weaker reporter binding
Conditions: Eterna round: R107; input ligand: none
Attribute: apparent KD of K4 kissing-loop reporter
Reply with the number, then its unit.

Req: Entry CAUUCACGGCGAGUCGAAGUGAUGUUUCGGCGAGGACCGGUACGGCCGCCACUCGGAUAAAUAUAGCUUAUCACAUACACUUUCG [theeternabot_exclusion_KL_Trp_A_27] : reported apparent KD of K4 kissing-loop reporter = ?
Resp: 0.14 µM

###

Test system: MS2 coat protein
Experiment: apparent KD of MS2 coat protein; higher = weaker reporter binding
Conditions: Eterna round: R101; input ligand: none
Attribute: apparent KD of MS2 coat protein
The answer is to be given in µM; state only the numeric part.

The cases that follow already have their apparent KD of MS2 coat protein on record.
1. UUGGACGUCGUAGGAUAUGUAGGAUAUUCCUACAUGAGGAUCACCCAUGUUGACAUGGAAGAAGGACAGAAGGACGAUGUCCAU (puzzle (switch architecture): Same State NG 2) | 0.217
2. GGAGAUACAUGAGGAUCACCCAUGUAGGAUAUAUAGUAUAUAUAUAUUGAAAGGUAUAUAUAUAUAUAGAAGGGCGUGCACACC [#LOL-18] (puzzle (switch architecture): Small Loop Exclusion NG 3) | 0.00907
3. AGACCUGCUCAGAAGGAGAGUGCGAGGCUGGAAACAGCCUCGAACUAGAAACCUAGAGGAUCACCCUAGGAUAUGAGCAGGUCA [#SharedSequence - IExNG2: 10] (puzzle (switch architecture): Inverted Exclusion NG 2) | 0.00551

Req: Entry GGUCGACUUCAAGGAUAUGGACUGCAAAGCAGUCCAGAAGGUGAGGAUCACCCAUCUACGGUCAGGAAACUGACCGAUCGACCA [#SharedSequence - ExNG1-8] (puzzle (switch architecture): Exclusion NG 1) : reported apparent KD of MS2 coat protein = ?
Resp: 0.0862

Req: Entry GGAUAGGACAGAGGAUAUACGUGCUAGAGAUACUAGCAAAAUUUCCUCACAUGAGGAUCACCCAUGUAGAAGGCUGUCCUAUCG (puzzle (switch architecture): Exclusion NG 2) : reported apparent KD of MS2 coat protein = ?
Resp: 0.0157

Req: Entry AAAUAAUCCUUAGGAUAUGACUCCGAAACGGAGUCAGAAGGGAGGAUCACCCUCUUCAGCUCAGCGUCGAAAGACGCUGAGCAA [#SharedSequence ExNG1 - 22] (puzzle (switch architecture): Exclusion NG 1) : reported apparent KD of MS2 coat protein = ?
Resp: 0.0728

Req: Entry GUCAGCUCGUGAGGAUAUACAACACUGCUUCGGCAGUGUAUUAAGAUCACAUGAGGAUCACCCAUGUAGAAGGCACGAGCUGAU (puzzle (switch architecture): Exclusion NG 2) : reported apparent KD of MS2 coat protein = ?
Resp: 0.0139
